# ASSAY PROCEDURE: cell viability, MTT colorimetric assay
# Format: cell-based
# EXPERIMENTAL CONDITIONS: mouse; 200 μM, 72 h, percentage of controls (mean ± SD); read-out: Cell viability
OBSERVATION TYPE: viability at 72 h, 200 µM (%)
Form entry: value (%) — number only.

In: Any idea what viability at 72 h, 200 µM was measured for CC(C)=CCC[C@@H](C(=O)O)[C@H]1CC[C@@]2(C)C3=C(CC[C@]12C)[C@@]1(C)CC[C@H](O)C(C)(C)[C@@H]1CC3 [Fa-b, trametenolic acid] ?
Out: 85.3

In: Entry C=C(C)[C@@H]1CC[C@]2(CO)CC[C@]3(C)[C@H](CC[C@@H]4[C@@]5(C)CC[C@H](O)C(C)(C)[C@@H]5CC[C@]43C)[C@@H]12 [Fa-a, betulin] has what viability at 72 h, 200 µM?
Out: 75.1

----------
What Apoptosis rate was measured for each of the following?
# System: B16 melanoma cells
# ASSAY PROCEDURE: cell apoptosis rate, AnnexinV-FITC flow cytometry
# Type: cell-based
# EXPERIMENTAL CONDITIONS: 200 μM, 72 h, control set as 0% (mean ± SD)
Number only, in %; omit the unit.

In: Suppose we examine the compound C=C(C)[C@@H]1CC[C@]2(CO)CC[C@]3(C)[C@H](CC[C@@H]4[C@@]5(C)CC[C@H](O)C(C)(C)[C@@H]5CC[C@]43C)[C@@H]12 ; what Apoptosis rate value has been reported?
Out: 12.21

In: Look up Apoptosis rate for this compound: O=c1cc(CO)occ1O [kojic acid, Kojic acid, reference compound]
Out: 12.36

In: Data request, read-out Apoptosis rate, for CC(C)=CCC[C@@H](C(=O)O)[C@H]1CC[C@@]2(C)C3=C(CC[C@]12C)[C@@]1(C)CC[C@H](O)C(C)(C)[C@@H]1CC3
Out: 6.51

----------
# ASSAY PROCEDURE: cell viability, MTT colorimetric assay
# Format: cell-based
# EXPERIMENTAL CONDITIONS: mouse, B16 melanoma cells; 400 μM, 72 h, percentage of controls (mean ± SD); read-out: Cell viability
For each of the compounds below, state its viability at 72 h, 400 µM.

In: What measured viability at 72 h, 400 µM goes with O=c1cc(CO)occ1O [kojic acid, Kojic acid, reference compound] ?
Out: 70.9%

In: Could you tell me which viability at 72 h, 400 µM is on file for CC(C)=CC[C@@H](O)[C@@H](C)[C@H]1CC[C@@]2(C)C3=C(CC[C@]12C)[C@@]1(C)CC[C@H](O)C(C)(C)[C@@H]1CC3 ?
Out: 98.2%

In: Would you mind telling me what viability at 72 h, 400 µM value was observed for CC(C)=CCC[C@@H](C)[C@H]1CC[C@@]2(C)C3=C(CC[C@]12C)[C@@]1(C)CC[C@H](O)C(C)(C)[C@@H]1CC3 ?
Out: 94.6%

In: Data request, read-out viability at 72 h, 400 µM, for O=C(O)c1cccnc1
Out: 40.5%

----------
# ASSAY PROCEDURE: cell viability, MTT colorimetric assay
# Assay type: cell-based
# EXPERIMENTAL CONDITIONS: mouse; 400 μM, 72 h, percentage of controls (mean ± SD); read-out: Cell viability
# Description: To determine the safety of the various compounds, after treatment with the test compounds cell viability was determined by using MTT colorimetric assay and cell apoptosis rate by using AnnexinV-FITC apoptosis analysis kit (Tianjin Sungene Biotech Co., Ltd). 1 × 10^6 cells were added to individual wells of a 24-well plate. […] Cell viability was determined in a colorimetric assay using mitochondrial dehydrogenase activity in active mitochondria to form purple formazan. […]
OBSERVATION TYPE: viability at 72 h, 400 µM (%)
# value in %; strip the unit string

In: I have this compound here, CC(C)=CCC[C@@H](C(=O)O)[C@H]1CC[C@@]2(C)C3=C(CC[C@]12C)[C@@]1(C)CC[C@H](O)C(C)(C)[C@@H]1CC3 , and I need its recorded viability at 72 h, 400 µM.
Out: 70

In: Reported viability at 72 h, 400 µM, compound C=C(C)[C@@H]1CC[C@]2(CO)CC[C@]3(C)[C@H](CC[C@@H]4[C@@]5(C)CC[C@H](O)C(C)(C)[C@@H]5CC[C@]43C)[C@@H]12 : ____
Out: 65.3

Data origin: paper PMC4145793
